# testTarget: HLA-B*15:17
# procedureText: IEDB peptide-MHC binding, purified MHC/direct/fluorescence; filed as Kd, often an IC50 or EC50 that approximates it; bounds were set here for any values at or beyond the usual limits of such assays
# experimentalContext: source organism: Rickettsia sibirica
assayReadout: Kd (nM)
One number for each entry, in nM.

Query: Look up Kd: ASWMALGVY
Result: 23.9

---

# testTarget: HLA-B*58:01
# procedureText: IEDB peptide-MHC binding, purified MHC/direct/fluorescence; filed as Kd, often an IC50 or EC50 that approximates it; bounds were set here for any values at or beyond the usual limits of such assays
# experimentalContext: source organism: Ebola virus - Mayinga, Zaire, 1976
pKd: −log10 of the molar value.
assayReadout: pKd

Query: Look at this sequence and give its reported pKd. SRTPSGKRL
Result: ≤ 4.70
